Tested on: SK-MEL-5 melanoma
Assay: NCI-60 one-dose screen, 48 h (100 = growth as untreated, 0 = no growth, -100 = all killed)
Conditions: 10 µM
This is part of a sample that, as a whole, favours compounds with a hit. Of some 83,000 tested, about 20% had one in any assay.
quantityName: growth (%)
// return numeric value only (unit: %, not printed)

Known results for compounds:
compound=O=C(c1ccc(O)cc1)c1ccc(O)cc1 quantityname=growth resultunits=% measurement=99.3
compound=CC(C)C(C#N)(C(C)C)C(C)C quantityname=growth resultunits=% measurement=101

Identify measured growth associated with `O=C1OC[C@H]2[C@H](c3ccc(O)c(O)c3)c3cc(O)c(O)cc3C[C@H]12`
102

Identify measured growth associated with `CCc1nn(Cc2ccccc2)c2nc(C)c(CCc3ccccc3)c(Cl)c12`
82.7
